Test system: CAKI-1
Assay: NCI tumour cell line growth inhibition, 48 h
Calls of active or inactive are those of the source. Rule as the data show it: active = GI50 up to about 1.1 µM and inactive = higher. Where a SMILES comes first, the peptide text is derived from it. [ ]: non-standard residue; d: D form. Phe(4-NO2) = N[CH](Cc1ccc([N+](=O)[O-])cc1)C(=O)O
Labels: T for active, F for inactive

[[record]]
molecule = "Cc1cc2ncn(-c3nc4ccccc4nc3C(C#N)S(C)(=O)=O)c2cc1C (stereo not given)"
class_assignment = "F"

[[record]]
molecule = "CC(NC(=O)C(Cc1ccc([N+](=O)[O-])cc1)NC(=O)C(N)CCCCN)C(=O)NC(Cc1ccc([N+](=O)[O-])cc1)C(N)=O (stereo not given) (H-K[Phe(4-NO2)]A[Phe(4-NO2)]-NH2; configuration not given here)"
class_assignment = "F"

[[record]]
molecule = "Cc1ccc(-c2cc(-c3ccccc3)nc(N)n2)c(O)c1"
class_assignment = "F"

[[record]]
molecule = "O=C(Nc1cccc2c1[nH]c1c(-c3ccccc3)nccc12)c1ccccc1[N+](=O)[O-]"
class_assignment = "F"

[[record]]
molecule = "CO[C@H]1C[C@H](O[C@H]2CC[C@]3(C=O)[C@H]4CC[C@]5(C)[C@@H](C6=CC(=O)OC6)CC[C@]5(O)[C@@H]4CC[C@]3(O)C2)O[C@H](C)[C@H]1O"
class_assignment = "T"

